# Test system: SK-MEL-5
# assayComment: NCI tumour cell line growth inhibition, 48 h
Active and inactive are the calls of the source. Rule as the data show it: active = GI50 up to about 1.1 µM and inactive = higher.
Labels: active, inactive

# molecule, classification
data = [
    ("O=c1[nH]c2ccc([N+](=O)[O-])c(Cl)c2c2ccccc12", "inactive"),
    ("Clc1cccc2c1OCC1C(c3ccccc3)=NN(c3ccccc3)C21 (configuration not stated)", "inactive"),
    ("COc1cc(/C=N/N=C2NCCN2)ccc1O", "inactive"),
    ("COC(=O)C1=C(O)C(C(=O)OC)[C@]2(O)[C@H](C(=O)OC)[C@H]1C[C@@H](c1ccc(F)cc1)[C@H]2C(=O)OC (some centres not stated)", "inactive"),
    ("COc1ccc2oc(C(=O)O)c3c2c1CCC3", "inactive"),
    ("Cc1[nH]c(=O)nc(S)c1C(=O)Nc1cccc2cc3ccccc3cc12", "inactive"),
    ("O=C1OC[C@@H]2Cc3cc4c(cc3[C@H](c3ccc5c(c3)OCO5)[C@@H]12)OCO4", "inactive"),
    ("Oc1ccccc1/C=C/c1csnn1", "inactive"),
    ("N#C/C(=C\\c1c(O)cc(O)cc1O)C(N)=O", "inactive"),
    ("CCn1nc(C)c2c1C(=O)NC(C)C(=O)N2 (configuration not stated)", "inactive"),
    ("C=C(C)C12OC1[C@@]1(C)C(=CC2=O)CCC(O)[C@@H]1C (some centres not stated)", "inactive"),
    ("COC(=O)Cc1cc2c(cc1C(=O)c1ccc(N)cc1)OCO2", "active"),
    ("CC(Nc1cc(Cl)cc(Cl)c1)c1ccncc1 (configuration not stated)", "inactive"),
    ("CC12CC3CC/C(=N\\O)C(C1)C3(N1CCOCC1)C/C2=N/O (configuration not stated)", "inactive"),
    ("CCOC(=O)/C(=C\\NC(C)(C)CO)c1nc2ccccc2[nH]1", "inactive"),
    ("NNC(=O)C(=O)N/N=C1\\CCC(=O)CC1C(=O)CCC(=O)Nc1ccc(Cl)cc1 (configuration not stated)", "inactive"),
    ("CCN(CCO)CC1CCCC2CCCCC21 (configuration not stated)", "inactive"),
    ("NC(=S)N1N=C2c3ccccc3CCC[C@H]2[C@@H]1c1ccccc1", "active"),
    ("O=c1[nH]c2cc([N+](=O)[O-])ccc2nc1/C(=N\\NO)C(O)c1ccc([N+](=O)[O-])cc1 (configuration not stated)", "inactive"),
    ("O=P1(N(CCCl)CCCl)Oc2ccc(Cl)cc2Sc2c(ccc(Cl)c2Cl)O1 (configuration not stated)", "inactive"),
    ("COc1cc2c3c(cc(Cl)nc3c1OC)C(O)(CC(=O)c1ccccc1)C(=O)N2 (configuration not stated)", "inactive"),
    ("O=C(c1ccccc1)C1N=NCC1c1ccc([N+](=O)[O-])cc1 (configuration not stated)", "inactive"),
]

----------
# System: BT-549
# assayComment: NCI tumour cell line growth inhibition, 48 h
Activity calls are given as the source filed them. Cut-off read from the data, not from the text of the source: active = GI50 up to about 1.1 µM and inactive = higher.

# compound, targetDesc, GI50
measured = [
    ("CC1=C(/C=C/C(=O)O)C(C)(C)CCC1", "BT-549", "> 100 µM (inactive)"),
    ("Cc1cc2c(cc1C)[n+]([O-])c(NCCCN(C)C)c(C#N)[n+]2[O-]", "BT-549", "79.1 µM (inactive)"),
    ("Cc1ccc(C(=O)N/N=C(\\N=N\\c2ccccc2[N+](=O)[O-])c2ccc(N(C)C)cc2)cc1", "BT-549", "> 100 µM (inactive)"),
    ("N=c1oc2ccc(Cl)cc2cc1C(=O)Nc1ccccc1", "BT-549", "> 54 µM (inactive)"),
    ("COC(=O)C1(Cc2ccc(C)cc2)Cc2c(C)cccc2C1=O (stereo unspecified)", "BT-549", "16.3 µM (inactive)"),
    ("COc1ccc(C2CC(c3ccc(NS(=O)(=O)c4cc([N+](=O)[O-])ccc4C)cc3)=NN2S(=O)(=O)c2cc([N+](=O)[O-])ccc2C)cc1 (stereo unspecified)", "BT-549", "36 µM (inactive)"),
]
